TEST SYSTEM: Glucose transporter (Leishmania mexicana)
METHOD: ST_JUDE_LEISH: Cytotoxicity at 2uM final concentration against transgenic Leishmania Mexicana promastigotes LmGT2 that are glucose transport deficient and complemented with the L. Mexicana glucose transporter 2. Activity is measured by DNA content using SYBR green in vitro
Type: functional
Recorded measurements of inhibition, one per entry

{"COMPOUND": "COc1cc(C)ccc1N1CCN(CCCCNC(=O)c2ccc(NC(=O)c3ccc(Cl)cc3)cc2)CC1", "inhibition (%)": 6.92}
{"COMPOUND": "CCCCCN1CCCN(Cc2cccc(NC(=O)c3ccc(-c4ccccc4)cc3)c2)CC1", "inhibition (%)": 2.3}
{"COMPOUND": "COc1ccc2nccc([C@@H](O)CN3CCC(NCc4nc5cc(F)ccc5o4)CC3)c2c1", "inhibition (%)": 1.01}
{"COMPOUND": "O=C(Nc1ccc(F)cc1)NC1CCN(c2ccnc3cc(Cl)ccc23)C1 (stereo unspecified)", "inhibition (%)": -1.87}
{"COMPOUND": "NS(=O)(=O)c1cccc(Nc2nccc(-c3c(-c4cccc(NC(=O)c5c(F)cccc5F)c4)nn4ccccc34)n2)c1", "inhibition (%)": 1.61}
{"COMPOUND": "COc1ccc(NC(=O)/C=C/c2ccccc2Cl)cc1OCCN1CCC(NCc2cccnc2)CC1", "inhibition (%)": 1.91}

###

TEST SYSTEM: Hexose transporter 1 (Plasmodium falciparum) (UniProt O97467)
METHOD: ST_JUDE_LEISH: Cytotoxicity at 2uM final concentration against transgenic Leishmania Mexicana promastigotes LmPfHT that are glucose transport deficient and complemented with the Plasmodium falciparum hexose transporter. Activity is measured by DNA content using SYBR green in vitro
Type: functional

{"COMPOUND": "CC(C)N1CCC(N(Cc2ccc(-c3ccc(C(F)(F)F)cc3)cc2)C(=O)Cn2c(CCc3cccc(F)c3F)cc(=O)c3ccccc32)CC1", "inhibition, %": 1.55}
{"COMPOUND": "OCC1CCN(Cc2ccc(-c3ccc(-c4nc5cc(F)ccc5[nH]4)cc3)cc2)CC1", "inhibition, %": 4.55}
{"COMPOUND": "CCN(CC)c1ccc(-c2nc3cc(Cl)cnc3[nH]2)cc1", "inhibition, %": 5.32}
{"COMPOUND": "COc1ccc(-c2nnc(Sc3ccc(C#N)c([N+](=O)[O-])c3)n2CC(C)C)cc1", "inhibition, %": 3.46}
{"COMPOUND": "OCC1CCN(Cc2ccc(-c3ccc(-c4nc5cc(F)ccc5[nH]4)s3)cc2)CC1", "inhibition, %": 3.26}
{"COMPOUND": "Cc1cc(=O)c(-c2ccc(OCCSc3ccc(C(F)(F)F)cn3)cc2)c(C)[nH]1", "inhibition, %": 5.13}
{"COMPOUND": "O=C(N[C@H]1CCN(CCc2ccc(O[C@H]3CCNC3)c(Cl)c2)C1)c1ccc(Cl)c(Cl)c1", "inhibition, %": 1.22}
{"COMPOUND": "O=C(CN1CCCCC1)Nc1ccc(Nc2nccc(NCC(O)c3ccccc3)n2)cc1 (centres undefined)", "inhibition, %": 9.59}
{"COMPOUND": "Cc1cccc2nc(-c3cccc(-c4cccc(NC(=O)Cc5c[nH]cn5)c4)c3)[nH]c12", "inhibition, %": 2.27}

###

TEST SYSTEM: Glucose transporter (Leishmania mexicana) (UniProt O61059)
METHOD: ST_JUDE_LEISH: Cytotoxicity at 2uM final concentration against transgenic Leishmania Mexicana promastigotes LmGT2 that are glucose transport deficient and complemented with the L. Mexicana glucose transporter 2. Activity is measured by DNA content using SYBR green in vitro
Format: functional
Items are presented alongside their recorded inhibition.

{"COMPOUND": "Cc1ccccc1C1CCN(C2CCC(NC(=O)c3cc(-c4ccc(Cl)cc4)cs3)CC2)CC1 (configuration not stated)", "inhibition [%]": -2.52}
{"COMPOUND": "COC(=O)c1cc(C(O)CNC(C)CCc2cccc(F)c2)ccc1O (configuration not stated)", "inhibition [%]": 2.89}
{"COMPOUND": "CCC[C@@H]([C@@H](CC1CCCCC1)C(=O)N[C@H](C(=O)Nc1nccs1)C(C)(C)SCCNC(=O)OCc1ccccn1)N(O)C=O", "inhibition [%]": 8.17}
{"COMPOUND": "CCn1ncc2c(N3CCCC3=O)cc(C(=O)N[C@@H](Cc3ccccc3)[C@H](O)CNC(C)(C)c3cccc(C(F)(F)F)c3)cc21", "inhibition [%]": 5.42}
{"COMPOUND": "CC(=O)Nc1ccc(OCCN(Cc2ccccc2C(F)(F)F)c2ccc(C#N)c(C(F)(F)F)c2)cc1", "inhibition [%]": 28.2}
{"COMPOUND": "O=C(NCCN1CCCC1)c1cccc(-c2ccc(-c3nc4ccccc4[nH]3)s2)c1", "inhibition [%]": 4.63}
{"COMPOUND": "O=C(/C=C/c1ccc(C(F)(F)F)cc1)NCCCCCN1CCC(c2c[nH]c3ccccc23)CC1", "inhibition [%]": 0}
{"COMPOUND": "Cc1cccc(N2C(N)=NC(N)=NC2(C)C)c1C", "inhibition [%]": 1.09}
{"COMPOUND": "O=C(NCCCN1CCC(N2CCCCC2)CC1)C1=Cc2cc(Br)ccc2OC1", "inhibition [%]": 0.26}
{"COMPOUND": "Cn1cncc1C(=O)Nc1cccc(-c2csc(-c3nc4ccccc4[nH]3)c2)c1", "inhibition [%]": 2.3}
{"COMPOUND": "Cc1cccc2nc(-c3ccc(-c4cccc(NC(=O)c5ccncc5)c4)cc3)[nH]c12", "inhibition [%]": 1.08}
{"COMPOUND": "CCCCCCN1CCN(Cc2cccc(NC(=O)c3cc4ccccc4o3)c2)CC1", "inhibition [%]": 1.59}

###

Below, each entry is listed with its recorded inhibition.
TEST SYSTEM: Glucose transporter (Leishmania mexicana) (UniProt O61059)
METHOD: ST_JUDE_LEISH: Cytotoxicity at 2uM final concentration against transgenic Leishmania Mexicana promastigotes LmGT2 that are glucose transport deficient and complemented with the L. Mexicana glucose transporter 2. Activity is measured by DNA content using SYBR green in vitro
Format: functional

{"COMPOUND": "CC(C)(C)CCN1CCC(CNC(=O)c2cc(-c3cccc(C(F)(F)F)c3)cs2)C1 (configuration not stated)", "UNIT DESCRIPTOR": "%", "inhibition": -0.8}
{"COMPOUND": "COc1ccc(CNC2CCN(C)CC2)cc1-c1ccc(S(=O)(=O)NCCc2ccccn2)cc1", "UNIT DESCRIPTOR": "%", "inhibition": -0.1}
{"COMPOUND": "COc1ccccc1-n1c(SCC(=O)Nc2ccccc2F)nc2cccnc21", "UNIT DESCRIPTOR": "%", "inhibition": 2.25}
{"COMPOUND": "COc1ccc2nccc([C@@H](O)CN3CCC(NCc4nc5ccccc5s4)CC3)c2c1", "UNIT DESCRIPTOR": "%", "inhibition": -0.69}
{"COMPOUND": "CCn1ncc2c(N3CCCC3=O)cc(C(=O)N[C@@H](Cc3ccccc3)[C@H](O)CNC(C)(C)c3cccc(OC)c3)cc21", "UNIT DESCRIPTOR": "%", "inhibition": 0.04}
{"COMPOUND": "O=C(O)c1cc(C(F)(F)F)co1", "UNIT DESCRIPTOR": "%", "inhibition": -0.54}
{"COMPOUND": "CCN(CC)CCN(Cc1ccc(-c2ccc(C(F)(F)F)cc2)cc1)C(=O)Cn1c(CCc2cccc(F)c2F)nc(=O)c2ccc(C(F)(F)F)cc21", "UNIT DESCRIPTOR": "%", "inhibition": 1.99}
{"COMPOUND": "CCC(=O)N1CCc2cc(Br)cc(S(=O)(=O)N3CC(C)CC(C)C3)c21 (configuration not stated)", "UNIT DESCRIPTOR": "%", "inhibition": 3.73}
{"COMPOUND": "O=C(Nc1ccnc(N2CCCN(Cc3cccc(O)c3)CC2)c1)c1ccc(F)cc1", "UNIT DESCRIPTOR": "%", "inhibition": 4.83}
{"COMPOUND": "Oc1ccc2nc(NCCCc3ccccc3)nc(NCCCc3ccccc3)c2c1", "UNIT DESCRIPTOR": "%", "inhibition": 11.1}
{"COMPOUND": "CCCCCCCCN1CCCN(C(=O)c2cccc(NC(=O)Nc3ccc4ccccc4c3)c2)CC1", "UNIT DESCRIPTOR": "%", "inhibition": -0.77}
{"COMPOUND": "Cc1cc(Cl)c(S(=O)(=O)N(C)c2ccccc2)cc1OCC(=O)NC1CCCCC1", "UNIT DESCRIPTOR": "%", "inhibition": 2.02}
{"COMPOUND": "O=C(c1ccc(-c2cccc(-c3nc4cc(C(F)(F)F)ccc4[nH]3)c2)cc1)N1CCCCC1CN1CCC(O)C1 (configuration not stated)", "UNIT DESCRIPTOR": "%", "inhibition": 0.17}
{"COMPOUND": "FC(F)(F)CNc1nc(Nc2ccc3ncccc3c2)nc2[nH]ccc12", "UNIT DESCRIPTOR": "%", "inhibition": 8.14}
{"COMPOUND": "COc1cc2nc(N3CC(C)N(C(=O)Cc4ccc(-c5ccccc5)cc4)C(C)C3)nc(N)c2cc1OC (configuration not stated)", "UNIT DESCRIPTOR": "%", "inhibition": 3.8}
{"COMPOUND": "COc1cc2c(cc1OC)CN(CCc1ccc(NC(=O)c3cc4cc(Cl)ccc4[nH]3)cc1)CC2", "UNIT DESCRIPTOR": "%", "inhibition": 1.46}
{"COMPOUND": "CC(=O)Nc1ccc(C(=O)Nc2ccc(-c3cccc(-c4nc5cccc(C)c5[nH]4)c3)cc2)cn1", "UNIT DESCRIPTOR": "%", "inhibition": -3.28}
{"COMPOUND": "CCn1c(C)cc(C=C2SC(=Nc3ccccc3)NC2=O)c1C", "UNIT DESCRIPTOR": "%", "inhibition": 2.93}
{"COMPOUND": "COc1ccc2ncc(F)c(CCN3CCC(NCc4cc(F)c5c(c4)OCCO5)CC3)c2n1", "UNIT DESCRIPTOR": "%", "inhibition": 17.9}
{"COMPOUND": "Cc1cc(N[C@@H](Cc2ccccc2)C(=O)NCCCOC(C)C)nc(NCC2CCCCC2)n1", "UNIT DESCRIPTOR": "%", "inhibition": 8.28}
{"COMPOUND": "CC(C)(CNCc1cccc(Oc2ccccc2)c1)c1nc(-c2ccnc(N)n2)c(-c2ccc(Cl)c(O)c2)[nH]1", "UNIT DESCRIPTOR": "%", "inhibition": -0.78}
{"COMPOUND": "COc1ccc(CN2CCCC(Nc3ccc(F)c(F)c3)C2)c(O)c1 (configuration not stated)", "UNIT DESCRIPTOR": "%", "inhibition": 3.1}
{"COMPOUND": "OC(CNc1ccnc(Nc2cccc(OCCCN3CCOCC3)c2)n1)c1ccccc1 (configuration not stated)", "UNIT DESCRIPTOR": "%", "inhibition": -0.96}
{"COMPOUND": "Cc1sc2nc(CSc3ccccc3)nc(N3CCN(CC(=O)NC4CC4)CC3)c2c1C", "UNIT DESCRIPTOR": "%", "inhibition": -1.85}
{"COMPOUND": "COc1ccc(CNC(=O)c2cnc3c(O)cccc3c2Nc2cccc(NC(=O)c3ccc(-c4ccccc4)cc3)c2)cc1", "UNIT DESCRIPTOR": "%", "inhibition": 64.3}
{"COMPOUND": "O=C(NCCN1CCCC1)c1cccc(-c2ccc(-c3nc4cc(F)ccc4[nH]3)s2)c1", "UNIT DESCRIPTOR": "%", "inhibition": 3.1}
{"COMPOUND": "CS(=O)(=O)Nc1cccc(-c2cnc3[nH]cc(-c4ccc(CN)cc4)c3c2)c1", "UNIT DESCRIPTOR": "%", "inhibition": 3.33}
